System: MDA-MB-435
Assay: NCI tumour cell line growth inhibition, 48 h
Calls of active or inactive are those of the source. Rule as the data show it: active = GI50 up to about 1.1 µM and inactive = higher.
# valid calls are Y for active, N for inactive; nothing else

>>> print(df.to_string())
                                   compound  answer_label
0  O=C1N[C@H]2[C@H](O)[C@H](O)[C@@H](O)[C@H](O)[C@@H]2c2cc3c(c(O)c21)OCO3             Y
1  COC(=O)C1(C(=O)OC)CC2=C(S(=O)(=O)c3ccccc3)C[C@H](S(=O)(=O)c3ccccc3)[C@H]2C1             N
2  CC(C)(C)NCCC(O)c1cc(C(F)(F)F)nc2c(C(F)(F)F)cccc12 (stereo not drawn)             N
3  COc1cc(C2c3cc4c(cc3C3OC[C@@H]2C3CO)OCO4)cc(OC)c1OC (stereo partly drawn)             N
4  CC(NC(=O)C1(N)CCCC1)C(=O)O (stereo not drawn)             N

Record lookup: outcome of this test for `O=S(=O)(c1ccc(-c2nnc(-c3ccc(F)cc3)o2)cc1)c1ccc(-c2nnc(-c3ccc(F)cc3)o2)cc1` ?
N

Record lookup: outcome of this test for `CC[C@@]1(O)C(=O)OCc2c1cc1n(c2=O)Cc2cc3ccccc3nc2-1` ?
Y

Record lookup: outcome of this test for `CCOC(=O)C1=C(N2CCCC2)NC(=O)CC1=O` ?
N

---

Entries and their GI50
Test system: CCRF-CEM
Assay: NCI tumour cell line growth inhibition, 48 h
The source made the active and inactive calls. No stated cut-off is given here; in the data, active = GI50 up to about 1.1 µM and inactive = higher.

                                   molecule           measurement
0          Cc1cc(=O)oc2cc(OS(C)(=O)=O)ccc12   > 100 µM (inactive)
1  O=C1CC[C@H](NC(=O)Cc2ccccc2)C(=O)N1 [ANTINEOPLASTON A10]  > 1250 µM (inactive)
2  COc1ccc(-c2[nH]c(=O)n(C3OC(CO)C(O)C(O)C3O)c(=O)c2C#N)cc1 (stereo unspecified)   > 100 µM (inactive)
3  CC1(C(=O)Nc2ccc3cc4ccccc4cc3c2)CC2(C)CC(C)(C1)C(O)NC2=O (stereo unspecified)    34.4 µM (inactive)
4  O=C1c2cc([N+](=O)[O-])sc2C(=O)c2c([N+](=O)[O-])csc21    0.0759 µM (active)

Sample `O=C(/C=C1\NC(=O)c2ccccc2N1)c1ccncc1` — what was its GI50?
> 100 µM (inactive)

Sample `CN(CC(=O)O)c1ncc2c(n1)CCCC2` — what was its GI50?
> 100 µM (inactive)

Sample `Cc1ccc(-c2sc(-c3ccc(C)cc3)c3c2C2CCC3C2)cc1` — what was its GI50?
> 50 µM (inactive)

Sample CN1CCC23c4c5ccc(Oc6nnnn6-c6ccccc6)c4OC2c2[nH]c4ccccc4c2CC3(O)C1C5 (stereo unspecified) — what was its GI50?
2.08 µM (inactive)

Sample `CC[C@]1(O)C(=O)OCc2c1cc1n(c2=O)Cc2cc3c(N)cccc3nc2-1` — what was its GI50?
> 100 µM (inactive)

---

Tested on: NCI-H460
Assay: NCI tumour cell line growth inhibition, 48 h
The source made the active and inactive calls. Rule as the data show it: active = GI50 up to about 1.1 µM and inactive = higher.
Endpoint name: GI50

>>> print(df.to_string())
                             molecule  target_system  endpoint_name          measurement
0  OC1CCOc2ccccc21 (stereo not given)       NCI-H460           GI50  > 100 µM (inactive)

Quick check: GI50 on NCI-H460, item O=C1NC(O)CCN1C1OC(CO)C(O)C1O (stereo not given) ?
> 250 µM (inactive)

Quick check: GI50 on NCI-H460, item COc1cccc(/C=C/C2=NN(c3cccc(S(=O)(=O)O)c3)C3(C2)SCC(=O)N3c2nc3ccccc3s2)c1 (stereo not given) ?
35.7 µM (inactive)

Quick check: GI50 on NCI-H460, item CC1N(O)C(c2ccccc2)C(c2ccccc2)=[N+]1[O-] (stereo not given) ?
> 100 µM (inactive)

Quick check: GI50 on NCI-H460, item `C[N+](C)(C)CCc1ccccc1` ?
> 100 µM (inactive)
